molecular target: Macrophage metalloelastase (Homo sapiens, UniProt P39900)
Sequence (P39900 whole entry): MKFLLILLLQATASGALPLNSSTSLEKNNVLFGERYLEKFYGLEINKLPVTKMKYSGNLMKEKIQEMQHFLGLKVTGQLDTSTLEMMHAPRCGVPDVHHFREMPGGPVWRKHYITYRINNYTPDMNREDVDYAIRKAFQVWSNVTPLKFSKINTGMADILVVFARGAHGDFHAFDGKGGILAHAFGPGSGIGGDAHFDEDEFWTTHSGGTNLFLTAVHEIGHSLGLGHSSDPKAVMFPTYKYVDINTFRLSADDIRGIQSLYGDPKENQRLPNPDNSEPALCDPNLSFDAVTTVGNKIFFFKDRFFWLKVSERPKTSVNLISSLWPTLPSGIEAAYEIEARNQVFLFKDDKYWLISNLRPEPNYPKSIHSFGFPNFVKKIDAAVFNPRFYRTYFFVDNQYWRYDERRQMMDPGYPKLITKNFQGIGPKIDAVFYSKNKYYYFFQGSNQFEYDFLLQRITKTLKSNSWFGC
OBSERVABLE: IC50 (µM)
Field: numeric (µM). Do not append units.

Q: Tell me its IC50 given O=C(NO)[C@@H]1CS(=O)(=O)CN1S(=O)(=O)c1ccc(Oc2ccc(Cl)cc2)cc1 as the entry.
Result: 0.019

====

target: Matrix metalloproteinase-9 (Homo sapiens, UniProt P14780)
Sequence (P14780 whole entry): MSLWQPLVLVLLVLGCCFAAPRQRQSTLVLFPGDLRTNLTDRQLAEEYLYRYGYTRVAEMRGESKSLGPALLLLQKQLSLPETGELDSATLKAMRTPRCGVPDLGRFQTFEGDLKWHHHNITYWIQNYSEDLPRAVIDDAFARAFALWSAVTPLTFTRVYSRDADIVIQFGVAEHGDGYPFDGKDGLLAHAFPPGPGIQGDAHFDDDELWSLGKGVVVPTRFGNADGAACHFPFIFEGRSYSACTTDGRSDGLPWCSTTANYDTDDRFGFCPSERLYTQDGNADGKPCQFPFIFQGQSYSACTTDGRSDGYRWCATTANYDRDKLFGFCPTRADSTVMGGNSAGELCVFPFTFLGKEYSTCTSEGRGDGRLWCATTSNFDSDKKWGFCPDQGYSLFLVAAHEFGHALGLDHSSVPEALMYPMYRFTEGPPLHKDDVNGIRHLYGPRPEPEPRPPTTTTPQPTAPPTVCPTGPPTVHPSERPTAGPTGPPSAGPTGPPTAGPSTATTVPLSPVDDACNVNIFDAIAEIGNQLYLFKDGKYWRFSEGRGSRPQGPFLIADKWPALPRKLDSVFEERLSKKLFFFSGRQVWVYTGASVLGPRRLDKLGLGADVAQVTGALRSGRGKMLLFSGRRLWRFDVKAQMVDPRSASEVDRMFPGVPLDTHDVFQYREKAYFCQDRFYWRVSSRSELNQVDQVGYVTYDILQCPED
OBSERVABLE: IC50 (nM)
Your answer is read as nM, so omit the unit and give the number.

Please review the entries below; each comes with its answer.
{"SMILES": "O=C(NO)[C@@H]1CSCN1S(=O)(=O)c1cccc2cccnc12", "IC50, nM": 560}
{"SMILES": "COc1ccc(Oc2ccc(S(=O)(=O)N3CSC[C@H]3C(=O)NO)cc2)cc1", "IC50, nM": 2}
{"SMILES": "O=C(NO)[C@@H]1CS(=O)(=O)CN1S(=O)(=O)c1ccc(Oc2ccc(Cl)cc2)cc1", "IC50, nM": 0.5}

Q: Give reported IC50 value for O=C(NO)[C@@H]1CSCN1S(=O)(=O)c1ccc(-c2ccccc2)cc1
Result: 230

====

target: Interstitial collagenase (Homo sapiens); assay: Inhibition of MMP1 catalytic domain using Mca-Pro-Leu-Gly-Leu-Dpa-Ala-Arg-NH2 as substrate preincubated for 1 hr prior substrate addition measured after 3 hrs by spectrofluorimetry
Sequence (P03956 whole entry, the tested form may be a part): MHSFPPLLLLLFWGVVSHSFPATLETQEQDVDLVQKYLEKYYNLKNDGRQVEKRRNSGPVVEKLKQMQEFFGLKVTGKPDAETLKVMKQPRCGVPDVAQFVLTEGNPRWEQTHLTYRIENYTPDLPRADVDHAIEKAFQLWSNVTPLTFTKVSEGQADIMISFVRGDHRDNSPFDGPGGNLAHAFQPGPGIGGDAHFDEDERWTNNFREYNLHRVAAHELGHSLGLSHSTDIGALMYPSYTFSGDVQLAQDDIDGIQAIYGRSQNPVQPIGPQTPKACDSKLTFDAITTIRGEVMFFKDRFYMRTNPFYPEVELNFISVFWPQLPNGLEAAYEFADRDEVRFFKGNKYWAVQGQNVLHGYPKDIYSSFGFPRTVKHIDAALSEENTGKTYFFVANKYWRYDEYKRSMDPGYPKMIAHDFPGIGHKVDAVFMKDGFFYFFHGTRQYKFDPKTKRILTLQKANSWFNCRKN
Quick reference: pIC50 of the listed items.
Please treat pIC50 as minus the base-10 logarithm of the molar concentration.

Q: Write down measured pIC50 (Interstitial collagenase (Homo sapiens)) for this compound. O=C(NO)[C@@H]1CSCN1S(=O)(=O)c1ccc(Oc2ccc(Cl)cc2)cc1
Result: 6.00

Q: Please look at O=C(NO)[C@@H]1C[S+]([O-])CN1S(=O)(=O)c1ccc(-c2ccccc2)cc1 (stereo partly drawn) and tell me its recorded pIC50 on Interstitial collagenase (Homo sapiens).
Result: 5.40

====

target: 72 kDa type IV collagenase (Homo sapiens)
Sequence (P08253 whole entry): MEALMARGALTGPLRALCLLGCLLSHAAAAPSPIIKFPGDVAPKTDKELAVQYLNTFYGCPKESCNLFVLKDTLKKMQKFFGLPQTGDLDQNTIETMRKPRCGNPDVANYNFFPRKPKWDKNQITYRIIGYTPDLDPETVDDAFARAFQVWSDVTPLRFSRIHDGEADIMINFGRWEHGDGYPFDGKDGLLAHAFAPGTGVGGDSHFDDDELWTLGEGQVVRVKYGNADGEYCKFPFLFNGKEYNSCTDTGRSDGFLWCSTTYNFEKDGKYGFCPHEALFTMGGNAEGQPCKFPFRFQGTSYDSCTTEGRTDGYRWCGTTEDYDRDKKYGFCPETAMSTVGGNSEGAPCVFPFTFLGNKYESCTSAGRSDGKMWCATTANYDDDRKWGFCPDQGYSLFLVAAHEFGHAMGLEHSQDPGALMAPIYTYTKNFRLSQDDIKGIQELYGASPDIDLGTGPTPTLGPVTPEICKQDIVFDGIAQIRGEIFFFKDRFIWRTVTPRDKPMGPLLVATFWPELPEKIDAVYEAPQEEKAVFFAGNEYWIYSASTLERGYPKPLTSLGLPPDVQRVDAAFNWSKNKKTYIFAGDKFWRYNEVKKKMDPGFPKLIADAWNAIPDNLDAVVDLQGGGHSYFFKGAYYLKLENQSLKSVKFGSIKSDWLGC
OBSERVABLE: IC50 (µM)
Numeric answer only, unit µM assumed.

Previously resolved entries follow.
{"SMILES": "O=C(NO)[C@@H]1CSC(=O)N1Cc1ccc(-c2ccccc2)cc1", "OUTPUT UNIT": "µM", "IC50": 6.8}
{"SMILES": "O=C(NO)[C@H]1CCC(=O)N1Cc1ccc(-c2ccccc2)cc1", "OUTPUT UNIT": "µM", "IC50": 3}
{"SMILES": "O=C(NO)[C@@H]1CCC(=O)N1Cc1ccc(-c2ccccc2)cc1", "OUTPUT UNIT": "µM", "IC50": 9}
{"SMILES": "O=C(NO)[C@@H]1CS(=O)(=O)CN1S(=O)(=O)c1ccc(-c2ccccc2)cc1", "OUTPUT UNIT": "µM", "IC50": 0.053}

Q: GET IC50 where system = 72 kDa type IV collagenase (Homo sapiens) and item = O=C(NO)[C@H]1CCC(=O)N1Cc1ccc(Cl)cc1
Result: 400

Q: Please indicate recorded IC50 of O=C(NO)[C@@H]1CCC(=O)N1S(=O)(=O)c1ccc(-c2ccccc2)cc1 measured with 72 kDa type IV collagenase (Homo sapiens).
Result: 1.7

====

Target or system UniProt:P50281; recorded quantity IC50.
Give your result in µM as a bare value.

{"COMPOUND": "O=C(NO)[C@@H]1C[S+]([O-])CN1S(=O)(=O)c1ccc(-c2ccccc2)cc1 (some centres not stated)", "OUTPUT UNIT": "µM", "MEASURED VALUE": 0.16}

Q: Please respond with reported IC50 (system UniProt:P50281) for O=C(NO)[C@@H]1CS(=O)(=O)CN1S(=O)(=O)c1ccc(Oc2ccc(Cl)cc2)cc1 .
Result: 0.005
